These data points were gathered from patent US8575170B2.

Test system: SHP77
experimental-details: MTT cell viability, SHP77
Format: cell-based
experimental-setup: Homo sapiens, SHP77, 96 h, SCLC lung cell line SHP77; 4 days incubation
quantity: IC50 (nM)
I only need the number, in nM, no unit after it.

Incoming: Look up and state reported IC50 for C[C@H](C(=O)N[C@@H](Cc1ccc(-c2ccccc2)cc1)C(=O)NC1CC(C)(C)NC(C)(C)C1)c1ccc(-c2ccccc2)c(F)c1 [GCBH-110]
Outgoing: 500

###

Test system: H446
experimental-details: MTT cell viability, H446
Type: cell-based
experimental-setup: Homo sapiens, NCI-H446, 96 h; SCLC lung cell line H446; 4 days incubation
quantity: pIC50
Expect pIC50 as a plain number equal to -log10 of the molar concentration.

Incoming: Look up and state reported pIC50 for C[C@H](C(=O)N[C@@H](Cc1ccc(-c2ccccc2)cc1)C(=O)NC1CC(C)(C)NC(C)(C)C1)c1ccc(-c2ccccc2)c(F)c1 [GCBH-110]
Outgoing: 6.36
